Hey, just so you know, these numbers are from PubChem BioAssay.

Experiment description: E. coli acrAB mutant growth effects, primary screen, E. coli filamentation inducers, strain DRC39, OD650, 48 h (AID 1179);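 further: screen aims at cell division blockers that make cells filament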
Study conditions: E. coli DRC39 delta-acrAB growth, higher = more signal, called active from +8 up or from −8 down

| Compound | z-score |
| --- | --- |
| C=CC[C@@]1(C(=O)NCC(O)CO)N=C(c2ccc(OCCCO)cc2)O[C@@H]1c1ccccc1CN=[N+]=[N-] (some centres undefined) | 1.52 |
| O=C1O[C@@H](c2ccccc2)[C@@H](c2ccccc2)N2[C@@H](c3ccc(O)cc3)[C@]3(C(=O)Nc4ccc(C#CC5(O)CCCCCC5)cc43)[C@@H](C(=O)Nc3nc4ccccc4s3)[C@H]12 | 0.946 |
| CC(C)(C)OC(=O)CC[C@]1(C(=O)NCCN2CCOCC2)N=C(c2ccc(OCCCO)cc2)O[C@H]1c1ccccc1CN=[N+]=[N-] | 0.277 |
| O=C(NCc1ccccc1)[C@@]1(Cc2ccccc2)COC(c2ccc(OCCCO)cc2)=N1 | -0.762 |
| Cc1ccc(S[C@]2(C(=O)O)CC(=O)N(Cc3ccccc3)[C@@H]2c2ccc(CO)cc2)cc1 | 0.612 |
| COC(=O)[C@@]1(Cc2ccccc2CN=[N+]=[N-])N=C(c2ccc(OCCCO)cc2)O[C@H]1c1ccccc1N=[N+]=[N-] | -0.762 |
| CN1CCC(CCCO)=CC1C1CC1 (centres undefined) | 0.611 |
| O=C1C[C@@](C(=O)NCCN2CCOCC2)(c2ccc([N+](=O)[O-])cc2)[C@@H](c2ccc(CO)cc2)N1C1CCCCC1 | 0.274 |
| CO[C@H]1COC(=O)[C@H](C)NC(=O)CC=C[C@@H](C)[C@H](NS(=O)(=O)c2ccc(C)cc2)COC(=O)CC=C[C@@H]1C | -0.244 |
| C[C@@H]1C=CCC(=O)OC[C@H]2O[C@@H](C=C[C@@H]2O)[C@H](C)C=CCC(=O)OC[C@H]2O[C@H]1C=C[C@@H]2O | -1.41 |
| [N-]=[N+]=NCc1ccccc1C[C@@]1(C(=O)N2CCOCC2)N=C(c2ccc(OCCCO)cc2)O[C@@H]1c1ccccc1N=[N+]=[N-] | 0.612 |
| C=C(CCCC)/C(=C/C[C@@H](OC(=O)c1ccncc1)c1ccc(CO)o1)c1cnc2ccccc2c1 | 0.29 |
| Cc1ccc(N2C(=O)c3ccccc3[C@@H](C(=O)NCc3ccccc3)[C@@H]2c2ccc(CO)cc2)nc1 | -0.0787 |
| COC(=O)[C@H]1[C@@H]2COc3ccccc3[C@H]2N[C@H]1C(=O)OC | 0.398 |
| O=C/C=C/c1ccccc1Cl | 0.496 |
| CC[C@@H]1C=C(C(=O)O)[C@H](c2ccccc2)N1S(=O)(=O)c1ccc([N+](=O)[O-])cc1 | -1.84 |
| CO[C@@H]1COC(=O)[C@H](COCc2ccccc2)NC(=O)CC=C[C@@H](C)[C@H](OC)COC(=O)[C@H](COCc2ccccc2)NC(=O)CC=C[C@H]1C | -0.0924 |
| CO[C@@H]1COC(=O)CC=C[C@H](C)COC(=O)[C@H](Cc2ccccc2)NC(=O)CC=C[C@H]1C | -0.0502 |
| CCOC(=O)C[C@H]1[C@H](OC(=O)Cc2ccc3c(c2)OCO3)[C@@H](NC(=O)c2ccc3ccccc3c2)c2cc(OCCCO)ccc2N1C(=O)Cc1ccc(OC)cc1 | 1.11 |
| CC(=O)NCCCC[C@@H]1NC(=O)[C@H]2C[C@@H](C(=O)NCCCCCCN(C)C)[C@@H](c3ccc(O)cc3)N2C1=O | -1.53 |
| CO[C@H]1COC(=O)[C@@H](C)COC(=O)[C@H](Cc2ccccc2)NC(=O)CC=C[C@H]1C | 0.274 |
| O=C(O)[C@@H]1Cc2c([nH]c3ccccc23)[C@@H](c2ccccc2)N1 | 0.0747 |
| C=CCOC(=O)[C@@H]1[C@H]2C(=O)O[C@H](c3ccccc3)[C@H](c3ccccc3)N2[C@H](c2ccc(OCCOC(=O)[C@H]3C[C@H]4C(=O)N[C@@H](CCCCNC(C)=O)C(=O)N4[C@H]3c3ccc(O)cc3)cc2)[C@@]12C(=O)Nc1ccc(I)cc12 | -0.649 |
| C=CCOC(=O)[C@@H]1[C@H]2C(=O)O[C@H](c3ccccc3)[C@H](c3ccccc3)N2[C@H](c2ccc(OCCOC(=O)[C@H]3C[C@H]4C(=O)N5CCC[C@H]5C(=O)N4[C@H]3c3ccc(O)cc3)cc2)[C@@]12C(=O)Nc1ccccc12 | -0.148 |
| C[N+](C)(C)CCCC[C@@H]1NC(=O)[C@H]2C[C@@H](C(=O)NCc3ccc(F)cc3)[C@@H](c3cccc(OCCO)c3)N2C1=O | 0.604 |
| CC(=O)NCCCC[C@@H]1NC(=O)[C@@H]2C[C@H](C(=O)NCCCCCNC(=O)CS)[C@H](c3ccc(O)cc3)N2C1=O | 2.03 |
| [N-]=[N+]=Nc1ccccc1C[C@@]1(C(=O)N2CCOCC2)N=C(c2ccc(OCCCO)cc2)O[C@@H]1c1ccccc1N=[N+]=[N-] | 0.115 |
| CC(C)=C1C(=O)C(c2ccccc2)=C2CN3C(=O)N(CCc4ccccc4)C(=O)[C@]3(Cc3ccccc3)[C@H]21 | -0.295 |
| CCOC(=O)C[C@H]1[C@H](OC(=O)c2ccccc2-c2ccccc2)[C@@H](NC(=O)C2CCCCC2)c2cc(OCCCO)ccc2N1C(=O)c1ccccc1 | 1.37 |
